# Assayed target: Adenosine receptor A2a (Rattus norvegicus, UniProt P30543)
# Sequence (P30543 whole entry): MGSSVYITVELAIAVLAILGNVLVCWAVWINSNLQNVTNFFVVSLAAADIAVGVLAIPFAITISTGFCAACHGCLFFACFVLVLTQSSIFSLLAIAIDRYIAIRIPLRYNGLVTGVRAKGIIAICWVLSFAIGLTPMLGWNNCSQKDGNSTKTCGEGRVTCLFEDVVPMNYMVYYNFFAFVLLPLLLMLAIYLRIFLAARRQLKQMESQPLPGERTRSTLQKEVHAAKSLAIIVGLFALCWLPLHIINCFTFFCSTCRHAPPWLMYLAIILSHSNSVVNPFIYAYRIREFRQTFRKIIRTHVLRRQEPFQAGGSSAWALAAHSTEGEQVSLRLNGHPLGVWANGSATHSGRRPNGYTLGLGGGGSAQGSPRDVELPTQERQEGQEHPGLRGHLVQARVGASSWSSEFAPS
Hi! Just check whether Ki is below 0.02 µM. Below gives yes (1), equal or above gives no (0).

Report whether reported Ki is lower than 0.02 µM (strictly) for C#CCn1c(-c2ccccc2)nc2sc(C)c(C)c2c1=O no (0)

---

# Assayed target: Adenosine receptor A2a (Rattus norvegicus, UniProt P30543)
log10 Ki values for the molecules below.
Answers are given as log10 of Ki in nM.

C#CCOc1nc(-c2ccccc2)nc2sc3c(c12)CCCC3    0.48
C#CCn1c(Cc2ccc(F)cc2)nc2sc3c(c2c1=O)CCCC3    1.15
C#CCn1c(C)nc2sc3c(c2c1=O)CCCC3    0.85
C#CCn1c(C)nc2sc(C)c(C)c2c1=O    3.58
C#CCn1c(-c2ccccc2)nc2sc3c(c2c1=O)CCC3    3.99

Now examine the next entry.
log10 Ki recorded for this molecule, C#CCn1c(C)nc2sc3c(c2c1=O)CCC3 , is 1.26

Every entry's value here was drawn from ChEMBL document CHEMBL1157846.
